# target: Tyrosine-protein kinase JAK1 (Homo sapiens) (UniProt P23458)
# Sequence (P23458 whole entry): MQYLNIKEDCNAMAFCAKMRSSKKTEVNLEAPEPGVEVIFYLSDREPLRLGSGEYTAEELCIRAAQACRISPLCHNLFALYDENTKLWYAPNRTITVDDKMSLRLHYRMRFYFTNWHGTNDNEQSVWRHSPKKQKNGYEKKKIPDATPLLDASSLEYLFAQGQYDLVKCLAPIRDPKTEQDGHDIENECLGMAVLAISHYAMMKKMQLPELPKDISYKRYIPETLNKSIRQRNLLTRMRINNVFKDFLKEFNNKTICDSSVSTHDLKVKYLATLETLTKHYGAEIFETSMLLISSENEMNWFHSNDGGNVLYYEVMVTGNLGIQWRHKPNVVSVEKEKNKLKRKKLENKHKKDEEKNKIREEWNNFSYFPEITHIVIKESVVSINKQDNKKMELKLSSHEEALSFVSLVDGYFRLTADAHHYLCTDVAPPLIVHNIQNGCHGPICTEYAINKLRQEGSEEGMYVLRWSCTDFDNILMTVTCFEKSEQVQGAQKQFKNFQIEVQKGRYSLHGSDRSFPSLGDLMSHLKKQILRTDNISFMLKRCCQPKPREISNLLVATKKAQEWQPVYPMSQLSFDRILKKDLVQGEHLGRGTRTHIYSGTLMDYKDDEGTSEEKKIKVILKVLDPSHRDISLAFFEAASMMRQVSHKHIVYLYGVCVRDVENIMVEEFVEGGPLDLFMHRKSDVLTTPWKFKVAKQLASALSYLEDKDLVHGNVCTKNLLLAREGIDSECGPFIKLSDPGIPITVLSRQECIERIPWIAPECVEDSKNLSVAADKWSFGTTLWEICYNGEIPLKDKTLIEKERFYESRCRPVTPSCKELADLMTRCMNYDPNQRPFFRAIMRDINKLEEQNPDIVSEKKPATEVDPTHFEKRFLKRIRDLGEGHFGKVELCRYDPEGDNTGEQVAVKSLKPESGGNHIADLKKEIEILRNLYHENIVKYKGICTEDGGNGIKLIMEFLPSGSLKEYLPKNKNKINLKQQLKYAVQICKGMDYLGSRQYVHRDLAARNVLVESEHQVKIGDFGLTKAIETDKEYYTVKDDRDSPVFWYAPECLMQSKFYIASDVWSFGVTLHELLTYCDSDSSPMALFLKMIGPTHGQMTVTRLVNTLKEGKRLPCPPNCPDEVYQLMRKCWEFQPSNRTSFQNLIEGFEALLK
# assay_setup: at 0.1 µM
# Description: GSK_PKIS: JAK1 mean inhibition at 0.1 uM [Nanosyn]
measurement_type: inhibition (%)
Record the value in %, omitting the unit from your answer.

Record O=C(Nc1ccc(Oc2ccc3[nH]c(NC(=O)c4ccco4)nc3c2)cc1)Nc1cc(C(F)(F)F)ccc1F . Reported inhibition: -1.24

----------
# Test system: Tyrosine-protein kinase ABL1 (Homo sapiens), P00519 [Y253F]
# assay_setup: at 1 µM
# label = T if inhibition >= 10% else F

Entry COc1cc2ncnc(Nc3ccc(C)c(O)c3)c2cc1OC : is its inhibition no less than 10%?
T

Check if inhibition >= 10% (inclusive). Item: Nc1nccc(-c2c(-c3ccc(F)cc3)ncn2CCCN2CCOCC2)n1
F

Is reported inhibition greater than or equal to 10% here: NS(=O)(=O)c1ccc(Nc2cc(-c3cccc(O)c3)n[nH]2)cc1
T

Does inhibition meet or surpass 10% for CS(=O)(=O)CCNCc1nc(-c2ccc3ncnc(Nc4ccc(OCc5cccc(C(F)(F)F)c5)cc4)c3c2)cs1 ?
F

----------
# target: Receptor tyrosine-protein kinase erbB-2 (Homo sapiens) (UniProt P04626)
# Sequence (P04626 whole entry): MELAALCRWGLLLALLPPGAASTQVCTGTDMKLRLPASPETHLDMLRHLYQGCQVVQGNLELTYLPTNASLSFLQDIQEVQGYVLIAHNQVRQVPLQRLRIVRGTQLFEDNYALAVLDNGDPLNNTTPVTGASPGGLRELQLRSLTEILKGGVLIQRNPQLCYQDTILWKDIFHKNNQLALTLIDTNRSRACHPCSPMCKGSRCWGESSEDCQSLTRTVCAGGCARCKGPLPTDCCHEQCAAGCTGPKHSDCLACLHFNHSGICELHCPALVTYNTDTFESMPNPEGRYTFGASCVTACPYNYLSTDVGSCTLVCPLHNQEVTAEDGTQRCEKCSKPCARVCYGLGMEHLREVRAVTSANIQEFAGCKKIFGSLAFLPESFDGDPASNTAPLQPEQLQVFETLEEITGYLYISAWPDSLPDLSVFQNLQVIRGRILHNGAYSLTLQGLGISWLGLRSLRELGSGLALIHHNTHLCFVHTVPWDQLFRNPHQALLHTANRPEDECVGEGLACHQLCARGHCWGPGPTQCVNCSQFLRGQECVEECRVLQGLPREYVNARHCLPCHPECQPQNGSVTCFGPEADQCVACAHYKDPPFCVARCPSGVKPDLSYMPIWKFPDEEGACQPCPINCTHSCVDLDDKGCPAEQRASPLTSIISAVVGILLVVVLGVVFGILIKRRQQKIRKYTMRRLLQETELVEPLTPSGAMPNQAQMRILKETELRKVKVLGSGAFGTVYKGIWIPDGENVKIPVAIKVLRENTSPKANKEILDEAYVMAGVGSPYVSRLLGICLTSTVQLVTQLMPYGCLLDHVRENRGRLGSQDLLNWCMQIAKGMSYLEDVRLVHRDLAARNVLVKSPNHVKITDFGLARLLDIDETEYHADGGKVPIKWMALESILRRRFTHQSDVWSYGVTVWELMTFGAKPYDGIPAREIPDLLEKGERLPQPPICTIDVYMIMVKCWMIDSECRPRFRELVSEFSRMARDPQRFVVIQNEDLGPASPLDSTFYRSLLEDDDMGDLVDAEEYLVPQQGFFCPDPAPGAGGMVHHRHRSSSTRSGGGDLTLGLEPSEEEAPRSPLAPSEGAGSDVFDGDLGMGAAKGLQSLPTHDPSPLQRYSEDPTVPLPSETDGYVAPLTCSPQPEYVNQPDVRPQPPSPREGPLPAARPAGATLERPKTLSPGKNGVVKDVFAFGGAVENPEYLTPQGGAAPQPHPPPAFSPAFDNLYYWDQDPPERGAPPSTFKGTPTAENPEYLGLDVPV
# assay_setup: at 1 µM
# Description: GSK_PKIS: ERBB2 mean inhibition at 1 uM [Nanosyn]
We begin with a simple list: items and their reported inhibition.

Example cases with answers are listed next.
                                   compound  recorded_result
0  NS(=O)(=O)c1ccc(Nc2cc(-c3cccc(O)c3)n[nH]2)cc1           -4.93%
1  Cc1ccc(NC(=O)CC2CC2)cc1-c1ccc(C(=O)NCC2CC2)cc1            3.41%
2  Cc1ccc(Nc2ccnc(Nc3cccc(C(N)=O)c3)n2)cc1O             5.7%
3  COc1cc2ncnc(Nc3ccc4c(cnn4Cc4ccccc4)c3)c2cc1OC              83%
4  OCc1ccc(-c2nc(-c3ccccn3)c(-c3ccc4c(c3)OCO4)[nH]2)cc1           -3.06%

The compound identified as CC(C)c1ccc2c(c1)NC(=O)/C2=N/Nc1ccc(S(N)(=O)=O)cc1 registered its inhibition at 2.17%

inhibition reported for this compound CCS(=O)(=O)c1ccc(OC)c(Nc2ncc(-c3cccc(OC)c3)o2)c1 : 0.18%

The reported inhibition of the compound Cc1cc(O)cc(C)c1/C=C/c1cncc(C(=O)N(C)C)c1 was -0.95%

inhibition reported for this compound COc1cc(/C=N/Nc2ncnc3c2cnn3C(C)C)ccc1O : 3.23%

// recorded inhibition for CN1CCN(C(=O)c2ccc(NC(=O)Nc3ccc(N(C)c4ccnc(Nc5ccc(CS(C)(=O)=O)cc5)n4)cc3)cc2)CC1 : 3.94%

inhibition in this record for COC(=O)c1ccc2c(c1)C(=Cc1cc(Br)c(O)c(Br)c1)C(=O)N2 : 3.44%

// field: inhibition; key: NC(=O)c1sc(-n2cnc3ccccc32)cc1OCc1ccccc1Br ; value = 3.64%

CC(C)c1ccc(Nc2nccc(-c3cnn4ncccc34)n2)cc1 has a reported inhibition of 3.22%

Memo: FC(F)(F)c1ccc(-c2nn3ncccc3c2-c2ccnc(Nc3ccc4c(c3)OCCO4)n2)cc1 , reported inhibition: 12.5%

----------
# target: Hepatocyte growth factor receptor (Homo sapiens);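 also: reported values are means of MET inhibition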
# assay_setup: at 0.1 µM
// reported inhibition for each item listed
Give the value in % but do not write % after it.

Field inhibition (entry COc1cc2ncn(-c3cc(OCc4ccccc4S(C)(=O)=O)c(C#N)s3)c2cc1OC ) reads 5.94

# compound NC(=O)c1cccc(Nc2nccc(Nc3cccc(F)c3)n2)c1 ; its inhibition = 7.98

// inhibition lookup, compound = CN(C)C(=O)O[C@H]1CN[C@H](C#Cc2cc3ncnc(Nc4ccc(OCc5cccc(F)c5)c(Cl)c4)c3s2)C1 , result: 1.84

Reported inhibition of Nc1nccc(-c2c(-c3ccc(F)cc3)ncn2CCCN2CCOCC2)n1 : 3.68

Value of inhibition reported for the compound NS(=O)(=O)c1ccc(NC=C2C(=O)Nc3ccc4ncsc4c32)cc1 is 18.8

# inhibition of Cc1cc(-c2ccccn2)cc(C)c1/C=C/c1cncc(-c2nn[nH]n2)c1 = 2.88

----------
// reported inhibition for each item listed
# target: SRSF protein kinase 1 (Homo sapiens) (UniProt Q96SB4);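 also: values are mean percent inhibition of SRPK1 kinase, measured in the GSK PKIS screening panel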
# Sequence (Q96SB4 whole entry): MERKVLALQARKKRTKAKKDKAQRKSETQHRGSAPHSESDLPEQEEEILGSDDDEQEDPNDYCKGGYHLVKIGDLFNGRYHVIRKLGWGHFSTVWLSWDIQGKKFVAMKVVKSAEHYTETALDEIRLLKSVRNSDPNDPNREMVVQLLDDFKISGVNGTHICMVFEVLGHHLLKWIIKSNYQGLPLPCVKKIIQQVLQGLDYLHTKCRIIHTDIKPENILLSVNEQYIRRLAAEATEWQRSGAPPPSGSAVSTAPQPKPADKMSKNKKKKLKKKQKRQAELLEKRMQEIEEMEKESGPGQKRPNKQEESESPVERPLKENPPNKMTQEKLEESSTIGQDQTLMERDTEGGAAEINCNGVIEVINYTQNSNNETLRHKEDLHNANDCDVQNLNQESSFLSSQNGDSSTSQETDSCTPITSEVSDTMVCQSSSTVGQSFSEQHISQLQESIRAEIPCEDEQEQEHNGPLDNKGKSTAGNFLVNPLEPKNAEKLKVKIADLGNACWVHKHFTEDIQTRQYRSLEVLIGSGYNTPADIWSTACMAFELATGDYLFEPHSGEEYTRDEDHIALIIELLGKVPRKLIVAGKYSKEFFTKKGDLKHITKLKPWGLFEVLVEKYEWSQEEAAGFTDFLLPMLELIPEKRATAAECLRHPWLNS
# assay_setup: at 0.1 µM

Solved cases below.
>>> print(df.to_string())
                            chemical_string  recorded_result
0  O=C1Nc2ccccc2/C1=C/Nc1ccc2[nH]c(=O)[nH]c2c1           -1.11%
1  C[C@@H](Oc1cc(-n2cnc3ccc(OC[C@@H](O)CO)cc32)sc1C(N)=O)c1ccccc1Cl           -0.36%
2  Oc1cccc(-c2nc(-c3ccccc3)[nH]c2-c2ccncc2)c1           -1.52%
3  COc1ccc(-c2nn3ncccc3c2-c2ccnc(Nc3cccc(C(F)(F)F)c3)n2)cc1           -2.17%

Now for the compound whose inhibition we want.
Looking up COc1cc2ncnc(Nc3ccc4c(cnn4Cc4ccccc4)c3)c2cc1OC , I found its inhibition recorded as -4.03%

----------
Readings of inhibition for the listed molecules
# target: Phosphorylase b kinase gamma catalytic chain, skeletal muscle/heart isoform (Homo sapiens) (UniProt Q16816);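 also: each value is a mean percent inhibition of PHKG1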
# Sequence (Q16816 whole entry, looked up, canonical isoform): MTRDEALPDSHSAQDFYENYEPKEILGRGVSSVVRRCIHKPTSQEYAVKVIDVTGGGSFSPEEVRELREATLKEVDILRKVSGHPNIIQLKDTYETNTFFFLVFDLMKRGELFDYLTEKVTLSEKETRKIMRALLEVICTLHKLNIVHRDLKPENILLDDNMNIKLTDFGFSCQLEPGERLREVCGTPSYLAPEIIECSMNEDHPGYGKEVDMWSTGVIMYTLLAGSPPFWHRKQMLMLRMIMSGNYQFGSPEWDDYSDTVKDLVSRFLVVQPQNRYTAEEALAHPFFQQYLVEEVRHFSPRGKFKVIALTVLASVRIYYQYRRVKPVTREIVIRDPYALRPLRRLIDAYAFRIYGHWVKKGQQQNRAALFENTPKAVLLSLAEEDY
# assay_setup: at 1 µM
Field format: number, assumed %, no unit text.

Solved cases (5 shown):
In [3]: df
Out[3]:
                            chemical_string  measurement_type  recorded_result
0  COC(=O)Nc1nc2cc(Oc3ccc(NC(=O)Nc4cccc(Br)c4)cc3)ccc2[nH]1        inhibition             4.55
1  NS(=O)(=O)c1ccc(N/N=C2\C(=O)Nc3ccc(Cl)cc32)cc1        inhibition             14.3
2  Nc1ccc(C#Cc2cncnc2Nc2ccc(OCc3cccc(F)c3)c(Cl)c2)cc1        inhibition             2.49
3  NS(=O)(=O)c1ccc(Nc2cc(-c3cccc(O)c3)n[nH]2)cc1        inhibition             12.8
4  Nc1nccc(-c2c(-c3ccc(F)cc3)ncn2CCCN2CCOCC2)n1        inhibition             5.42

Recorded result, NS(=O)(=O)c1cccc(Nc2cc(-c3ccc(F)cc3)n[nH]2)c1 , inhibition: 14.5

In plain terms, NS(=O)(=O)c1ccc(NC=C2C(=O)Nc3ccc4ncsc4c32)cc1 has a documented inhibition of 66.4

----------
# target: Ribosomal protein S6 kinase alpha-3 (Homo sapiens);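 also: reported value is a mean inhibition figure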
# assay_setup: at 0.1 µM
measurement_type: inhibition (%)
Your answer should be a plain number; it is taken to be in %.

Please review the entries below; each comes with its answer.
>>> print(df.to_string())
                            chemical_string                                    target  recorded_result
0  Cc1cc(-c2ccccn2)cc(C)c1/C=C/c1cncc(-c2nn[nH]n2)c1  Ribosomal protein S6 kinase alpha-3 (Homo sapiens)            -0.57
1             c1ccc(Nc2ncc(-c3ccccc3)o2)cc1  Ribosomal protein S6 kinase alpha-3 (Homo sapiens)             0.46
2  CCS(=O)(=O)c1ccc(OC)c(Nc2ncc(-c3cccc(OC)c3)o2)c1  Ribosomal protein S6 kinase alpha-3 (Homo sapiens)            -0.45
3  FC(F)(F)c1ccc(-c2nn3ncccc3c2-c2ccnc(Nc3ccc4c(c3)OCCO4)n2)cc1  Ribosomal protein S6 kinase alpha-3 (Homo sapiens)             2.19

Next:
The reported value for Cc1ccc2c(-c3ccnc(Nc4ccc5c(c4)OCCO5)n3)c(-c3ccc(C(F)(F)F)cc3)nn2n1 in terms of inhibition is 1.19

----------
# target: Tyrosine-protein kinase BTK (Homo sapiens) (UniProt Q06187);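 also: values are averaged percent inhibition of BTK enzyme activity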
# Sequence (Q06187 whole entry): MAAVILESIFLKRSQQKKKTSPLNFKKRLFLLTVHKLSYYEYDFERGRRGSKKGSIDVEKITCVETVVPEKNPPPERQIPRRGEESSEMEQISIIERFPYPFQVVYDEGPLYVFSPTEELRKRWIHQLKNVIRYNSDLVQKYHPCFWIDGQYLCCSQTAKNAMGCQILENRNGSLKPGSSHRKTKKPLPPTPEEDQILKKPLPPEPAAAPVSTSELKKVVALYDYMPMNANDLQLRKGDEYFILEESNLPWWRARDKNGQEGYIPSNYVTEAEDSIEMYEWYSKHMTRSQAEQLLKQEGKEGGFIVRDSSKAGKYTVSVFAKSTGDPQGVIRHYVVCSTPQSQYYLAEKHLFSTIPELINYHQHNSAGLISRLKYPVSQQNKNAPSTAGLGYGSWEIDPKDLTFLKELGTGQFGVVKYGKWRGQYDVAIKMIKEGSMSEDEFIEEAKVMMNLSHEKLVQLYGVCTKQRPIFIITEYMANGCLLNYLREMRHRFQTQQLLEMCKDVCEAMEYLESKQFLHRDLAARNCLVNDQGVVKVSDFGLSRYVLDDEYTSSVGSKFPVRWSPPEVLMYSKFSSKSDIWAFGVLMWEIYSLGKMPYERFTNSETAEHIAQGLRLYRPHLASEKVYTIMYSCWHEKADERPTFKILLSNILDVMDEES
# assay_setup: at 0.1 µM
measurement_type: inhibition

>>> print(df.to_string())
                                   compound  recorded_result
0  C[C@@H](Oc1cc(-n2cnc3ccc(OCC4CCN(C)CC4)cc32)sc1C(N)=O)c1ccccc1C(F)(F)F            0.52%
1     COC(=O)c1cncc(/C=C/c2c(C)cc(O)cc2C)c1             1.9%

Bench note, Tyrosine-protein kinase BTK (Homo sapiens) (UniProt Q06187): entry c1ccc(Cc2nc3ccc(Nc4ncnc5ccccc45)cc3[nH]2)cc1 , its inhibition = 0.25%

Observed inhibition on Tyrosine-protein kinase BTK (Homo sapiens) (UniProt Q06187), entry CN(c1ccc(NC(=O)Nc2ccc(OC(F)(F)F)cc2)cc1)c1ccnc(Nc2cccc(S(N)(=O)=O)c2)n1 , equals 0.33%

Sample FC(F)(F)c1ccc(-c2nn3ncccc3c2-c2ccnc(Nc3ccc4c(c3)OCCO4)n2)cc1 , system: Tyrosine-protein kinase BTK (Homo sapiens) (UniProt Q06187). Its inhibition is 0.26%

The reported inhibition value, Tyrosine-protein kinase BTK (Homo sapiens) (UniProt Q06187), for [O-][S+]1CCN(Cc2ccc(-c3ccc4ncnc(Nc5ccc(OCc6ccccc6)c(Cl)c5)c4c3)o2)CC1 reads -1.44%

Tyrosine-protein kinase BTK (Homo sapiens) (UniProt Q06187) inhibition of NS(=O)(=O)c1ccc(Nc2cc(-c3cccc(O)c3)n[nH]2)cc1 is -0.39%
